// provenance: patent US4259235A

Each entry below lists one item and its recorded pest or weed control at 3000 g/ha value.
- System: Mentha piper.
- test details: Herbicidal action, pre- and postemergence application in the greenhouse
- Format: in vivo
- experimental conditions: post-emergence; 3.0 kg/ha POST; read-out: % damage
measured metric: pest or weed control at 3000 g/ha (%)

>  <compound>
Cc1ccc(NC2C(Br)C3CC2C2N=NC32)cc1 (stereo not shown)

>  <measured metric>
pest or weed control at 3000 g/ha

>  <quantity unit>
%

>  <reported>
100

$$$$
>  <compound>
CC(=O)OC1C2CC(C3N=NC23)C1Nc1ccc(Br)cc1 (stereo not shown)

>  <measured metric>
pest or weed control at 3000 g/ha

>  <quantity unit>
%

>  <reported>
95

$$$$
>  <compound>
FC(F)(F)c1cccc(NC2C(Br)C3CC2C2N=NC32)c1 (stereo not shown)

>  <measured metric>
pest or weed control at 3000 g/ha

>  <quantity unit>
%

>  <reported>
95

$$$$
>  <compound>
ClC1C2CC(C3N=NC23)C1Nc1nccs1 (stereo not shown)

>  <measured metric>
pest or weed control at 3000 g/ha

>  <quantity unit>
%

>  <reported>
100

$$$$
>  <compound>
c1ccc(C2=NOC3C4CC(C5N=NC45)C23)cc1 (stereo not shown) [drawing 453]

>  <measured metric>
pest or weed control at 3000 g/ha

>  <quantity unit>
%

>  <reported>
75

$$$$
>  <compound>
Cc1ccc(NC2C(Cl)C3CC2C2N=NC32)cc1 (stereo not shown)

>  <measured metric>
pest or weed control at 3000 g/ha

>  <quantity unit>
%

>  <reported>
100

$$$$
>  <compound>
[O-][N+]1=NC2C3CC(C(Br)C3Br)C21 (stereo not shown)

>  <measured metric>
pest or weed control at 3000 g/ha

>  <quantity unit>
%

>  <reported>
95

$$$$
